Reported values of melting point for individual entries

# count of solved cases: 3
compound="COC(C)Cc1nc2c(N)nc3ccccc3c2n1CC(C)C (centres undefined)" endpoint_value="139 to 141 °C"
compound="CCCCNC(=O)COC1c2ccccc2C(=O)N1c1ccc2ccc(OC)nc2n1 (centres undefined)" endpoint_value="170 °C"
compound=CCOC(=O)c1ccc(-c2cccc(O)c2)cc1 endpoint_value="76 °C"

Let us examine a further case.
Q) Data request, read-out melting point, for "O=C(Cn1c2c(c(=O)n3nc(-c4ccc(Cl)cc4)cc13)CN(C1CCCCC1)C2=O)c1ccccc1"
A) 237 to 239 °C

---

property-measured: melting point

# count of solved cases: 5
compound=O=Cc1ccc2ccc3c4ccccc4ccc3c2c1 property_measured="melting point" endpoint_value="177 to 178 °C"
compound="Cc1noc2cc3c(cc12)C1(CO3)C(=O)N(CC2CCCO2)c2ccccc21 (stereo unspecified)" property_measured="melting point" endpoint_value="134 to 135 °C"
compound=COc1ccc(-n2cnc3ccc(-c4nnc(CCc5cccc(C(F)(F)F)c5)o4)cc32)cc1 property_measured="melting point" endpoint_value="159 to 160 °C"
compound=CN1CC(c2ccc(Cl)cc2)=NNC1=O property_measured="melting point" endpoint_value="195 to 197 °C"
compound=O=c1c2ccccc2cc(-c2ccc(F)cc2)n1CCF property_measured="melting point" endpoint_value="119 to 121 °C"

Q) Data request, read-out melting point, for "O=c1ccn(-c2ccc([N+](=O)[O-])cc2)c(=O)[nH]1"
A) > 300 °C
